- TESTED_SYSTEM: T1, MdHB7L-HIS (UniProt D9ZJ22 1-236)
- T1 sequence: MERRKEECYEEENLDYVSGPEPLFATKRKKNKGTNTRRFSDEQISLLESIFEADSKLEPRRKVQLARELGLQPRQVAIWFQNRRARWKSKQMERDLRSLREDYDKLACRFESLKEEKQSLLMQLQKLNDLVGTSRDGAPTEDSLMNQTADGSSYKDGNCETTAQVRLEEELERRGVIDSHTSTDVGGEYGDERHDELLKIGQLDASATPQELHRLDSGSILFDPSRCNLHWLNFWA
- RUN_DESCRIPTION: EMSA; Beyotime Chemiluminescent EMSA Kit per manufacturer; buffer, salt, pH and temperature not given
- ASSAY_CONTEXT: protein: recombinant; tags: His (pET28a; BamHI/SalI site primers, no stop codon in reverse primer); chain copies: 2; label: biotin; blunt
OUTCOME_MEASURE: binding result

BINDER	OUTCOME_MEASURE	RESULT
pMdERDL6-1-1-HB (dsDNA) DNA 1: TTAGGATAGTAATTGGTAACTCTCGACTCC DNA 2: GGAGTCGAGAGTTACCAATTACTATCCTAA	binding result	binds
pMdCBF1-HB-P4 (dsDNA) DNA 1: GAAATTAAGTACTAATTGTTCAGTACCAAG DNA 2: CTTGGTACTGAACAATTAGTACTTAATTTC	binding result	binds
pMdCBF3-HB-P1 (dsDNA) DNA 1: AAAAATAAAATGATTAGCCTGGCGCATCTA DNA 2: TAGATGCGCCAGGCTAATCATTTTATTTTT	binding result	binds
pMdERD5-2-HB (dsDNA) DNA 1: TCTTTTTAGACCCTAATTATAGGGAAAGGG DNA 2: CCCTTTCCCTATAATTAGGGTCTAAAAAGA	binding result	binds
